conditions: 293 K; 101.33 kPa; Liquid
property.label: viscosity (mPa·s)

>>> df
                                   compound  property_label  numeric_readout
0  CCCCCC[n+]1cccc(C)c1.O=S(=O)([N-]S(=O)(=O)C(F)(F)F)C(F)(F)F       viscosity              110
1  CCCCCC[n+]1ccn(C)c1.O=S(=O)([N-]S(=O)(=O)C(F)(F)F)C(F)(F)F       viscosity               86
2  CCCCCC[n+]1cc(C)cc(C)c1.O=S(=O)([N-]S(=O)(=O)C(F)(F)F)C(F)(F)F       viscosity              136
3  CCCCn1cc[n+](C)c1.O=C([O-])C(F)(F)F [1-butyl-3-methylimidazolium trifluoroacetate]       viscosity               89
4  CCOS(=O)(=O)[O-].CC[n+]1ccccc1 [1-ethylpyridinium ethyl sulfate]       viscosity              183
5  CCCCn1cc[n+](C)c1.COCCOCCOS(=O)(=O)[O-] [1-butyl-3-methylimidazolium 2-(2-methoxyethoxy)ethyl sulfate]       viscosity             1676
6  CCn1cc[n+](C)c1.O=S(=O)([N-]S(=O)(=O)C(F)(F)F)C(F)(F)F       viscosity               36
7  CCCC[n+]1cccc(C)c1.F[B-](F)(F)F [1-butyl-3-methylpyridinium tetrafluoroborate]       viscosity              246

---

conditions: 293 K; 101.33 kPa; Liquid
Numbers after ± are expanded uncertainties.
property.label: viscosity

In [3]: df
Out[3]:
                                   compound             result
0  CC(=O)[O-].CCCCn1cc[n+](C)c1 [1-butyl-3-methylimidazolium acetate]     646 ± 80 mPa·s
1  CCOC(=O)c1ccc[n+](CC)c1.CCOS(=O)(=O)[O-] [3-(ethoxycarbonyl)-1-ethylpyridinium ethylsulfate]  5675 ± 1200 mPa·s
2  CCOS(=O)(=O)[O-].CC[n+]1cccc(C)c1 [1-ethyl-3-methylpyridinium ethylsulfate]     204 ± 17 mPa·s
3  CCCCCCn1cc[n+](C)c1C.O=S(=O)([N-]S(=O)(=O)C(F)(F)F)C(F)(F)F     171 ± 13 mPa·s
4  CCCC[n+]1cccc(C)c1.O=S(=O)([N-]S(=O)(=O)C(F)(F)F)C(F)(F)F       80 ± 4 mPa·s
5  CCCCCC[n+]1ccccc1.O=S(=O)([N-]S(=O)(=O)C(F)(F)F)C(F)(F)F [1-hexylpyridinium bis(trifluromethylsulfonyl)imide]      106 ± 7 mPa·s

---

conditions: 303 K; 101.33 kPa; Liquid
Categorized via viscosity: low (below 60 mPa·s), moderate (60 mPa·s to below 100 mPa·s), high (100 mPa·s or more)

                                    compound  assigned_class
 0  CC(=O)[O-].CCCCn1cc[n+](C)c1 [1-butyl-3-methylimidazolium acetate]            high
 1  CCOS(=O)(=O)[O-].CC[n+]1cccc(C)c1 [1-ethyl-3-methylpyridinium ethylsulfate]            high
 2  CCCCn1cc[n+](C)c1.O=C([O-])C(F)(F)F [1-butyl-3-methylimidazolium trifluoroacetate]             low
 3  CCn1cc[n+](C)c1.O=S(=O)([N-]S(=O)(=O)C(F)(F)F)C(F)(F)F             low
 4  CCOS(=O)(=O)[O-].CC[n+]1ccccc1 [1-ethylpyridinium ethyl sulfate]            high
 5  CCCCCC[n+]1cc(C)cc(C)c1.O=S(=O)([N-]S(=O)(=O)C(F)(F)F)C(F)(F)F        moderate
 6  CCCCCC[n+]1cccc(C)c1.O=S(=O)([N-]S(=O)(=O)C(F)(F)F)C(F)(F)F        moderate
 7  CCCCCCCCCCCCCC[N+](C)(CCOCCOCCOCCOCCOCCO)CCOCCOCCOCCOCCOCCO.COS(=O)(=O)[O-]            high
 8  CCCC[n+]1cccc(C)c1.O=S(=O)([N-]S(=O)(=O)C(F)(F)F)C(F)(F)F             low
 9  CCCCCC[n+]1ccn(C)c1.O=S(=O)([N-]S(=O)(=O)C(F)(F)F)C(F)(F)F             low
10  CCCCCC[n+]1ccccc1.O=S(=O)([N-]S(=O)(=O)C(F)(F)F)C(F)(F)F [1-hexylpyridinium bis(trifluromethylsulfonyl)imide]        moderate
11  CCCCn1cc[n+](C)c1.COCCOCCOS(=O)(=O)[O-] [1-butyl-3-methylimidazolium 2-(2-methoxyethoxy)ethyl sulfate]            high
12  CCOC(=O)c1ccc[n+](CC)c1.CCOS(=O)(=O)[O-] [3-(ethoxycarbonyl)-1-ethylpyridinium ethylsulfate]            high
13  CCCC[n+]1cccc(C)c1.F[B-](F)(F)F [1-butyl-3-methylpyridinium tetrafluoroborate]            high
